Recorded endpoint: melting point

Here is how some compounds turned out for melting point.
CC(=NNC(N)=S)c1ccc2c(c1)nc(Cn1nc3ccccc3n1)n2CCCN(C)C [Compound 19] = 212 to 214 °C
CC(=NNC(N)=O)c1ccc2c(c1)nc(Cc1ccc(Cl)cc1)n2CCCN(C)C = 211 to 212.5 °C
CCN(CC)CCCn1c(Cc2ccc(OC)cc2)nc2cc(C(C)=NNC(N)=S)ccc21 = 180.7 to 182.9 °C
CC(=NNC(N)=O)c1ccc2c(c1)nc(Cn1nc3ccccc3n1)n2CCN(C)C = 209 to 212 °C
CC(=NNC(N)=S)c1ccc2c(c1)nc(Cc1ccc(Cl)cc1)n2CCCN(C)C [Compound 4] = 110 to 111 °C
CC(=NNC(N)=S)c1ccc2c(c1)nc(Cn1nc3ccccc3n1)n2CCN(C)C = 214 to 217 °C

Below: the item to evaluate.
Reported melting point ( CCN(CC)CCCn1c(Cc2ccc(OC)cc2)nc2cc(C(C)=NNC(N)=O)ccc21 [Compound 17] ) = 190 to 192 °C

Cited source for all entries: paper PMC7180491
